# Test system: MALME-3M melanoma
# Test method notes: NCI-60 one-dose screen, 48 h (100 = growth as untreated, 0 = no growth, -100 = all killed)
# Experimental setup: 10 µM
This is part of a sample that, as a whole, favours compounds with a hit. Of some 83,000 tested, about 20% had one in any assay.
Response field class: string, computed from recorded growth by ranges low value (below -40%), medium value (-40% to below 50%), high value (50% or more)

{"columns": ["Compound", "Target entity", "Discrete label"],
 "data": [
  ["CCCn1c(=O)c2[nH]c(-c3ccc(OCc4nc5ccc(C)cc5[nH]4)cc3)nc2n(CCC)c1=O", "MALME-3M melanoma", "low value"],
  ["OCc1[nH]nc2cc(Nc3ncc4ccc(Br)c(OC5CCC(O)CC5)c4n3)ccc12 (centres undefined)", "MALME-3M melanoma", "low value"],
  ["CC(=O)c1ccc(NC(=O)NCn2c(=O)[nH]c3ccccc3c2=O)cc1", "MALME-3M melanoma", "high value"],
  ["CC(=O)Nc1nc(-c2ccc(N3CCN(C)CC3)c(NS(=O)(=O)c3cccc4c(N(C)C)cccc34)c2)cs1", "MALME-3M melanoma", "medium value"],
  ["N#Cc1c(-c2ccc(F)cc2)nc(SCc2ccc(F)cc2)nc1N1CCOCC1", "MALME-3M melanoma", "high value"],
  ["CN1C(=O)N(C)C2SC(N/N=C/c3cccs3)=NC21 (centres undefined)", "MALME-3M melanoma", "medium value"],
  ["COc1cc2c(c(OC)c1OC)C(=O)CC(c1cccc(NC(=O)c3cccc(N)c3)c1)O2 (centres undefined)", "MALME-3M melanoma", "high value"],
  ["COc1ccccc1[C@H]1C(C(=O)c2ccc(Cl)cc2)C2(N[C@@H]1c1ccccc1)C(=O)Nc1ccccc12 (some centres undefined)", "MALME-3M melanoma", "medium value"],
  ["C/C(=N\\N=C\\c1ccc(Cl)c([N+](=O)[O-])c1)c1ccc2c(c1)Nc1ccccc1S2", "MALME-3M melanoma", "medium value"],
  ["O=C(Nc1ccc(OCC(=O)c2ccccc2)cc1)Nc1ccc(Cl)c(C(F)(F)F)c1", "MALME-3M melanoma", "medium value"],
  ["O=C(NO)c1ccc(CNC(=O)[C@H]2Cc3c([nH]c4ccccc34)[C@H](c3ccccc3)N2)cc1", "MALME-3M melanoma", "medium value"],
  ["Cn1cc(/C=N/Nc2cccc(Cl)n2)c2ccccc21", "MALME-3M melanoma", "high value"],
  ["O=C1Nc2cc(Cl)ccc2/C1=C/c1cccc(OCc2ccc(Br)cc2F)c1", "MALME-3M melanoma", "medium value"],
  ["COc1cc2c3c(n(CCCNCCO)c(=O)c2cc1OC)-c1nc2c(cc1C3=O)OCO2", "MALME-3M melanoma", "medium value"],
  ["COc1ccc(C(C)=C(c2ccc(OCCCN(C)C)cc2)c2ccc(OCCCN(C)C)cc2)cc1", "MALME-3M melanoma", "low value"],
  ["CC1=C2C(=C[C@@](C)(COCOCCCl)[C@@H]2O)C(=O)[C@](C)(O)C12CC2", "MALME-3M melanoma", "low value"],
  ["COc1ccc(OC)c(/C=N/NC(=O)c2ccc3nc(-c4ccc(Cl)cc4)[nH]c3c2)c1", "MALME-3M melanoma", "high value"],
  ["O=c1[nH]c2ccccc2cc1CSc1ccc(Nc2nccc(-c3ccc4c(c3)OCO4)n2)cc1", "MALME-3M melanoma", "high value"]
]}
